Molecular target: Japanese eel (Anguilla japonica) UnaG, wild type, SEQ ID NO: 1 (Anguilla japonica)
Sequence (P0DM59 whole entry): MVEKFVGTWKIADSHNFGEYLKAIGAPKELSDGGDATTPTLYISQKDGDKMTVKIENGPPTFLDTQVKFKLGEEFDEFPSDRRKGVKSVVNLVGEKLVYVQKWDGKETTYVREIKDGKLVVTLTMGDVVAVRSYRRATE
pKd: −log10 of the molar value.
endpoint-name: pKd

{"structure-notation": "C=CC1=C(C)/C(=C/c2[nH]c(Cc3[nH]c(/C=C4\\NC(=O)C(C)=C4C=C)c(C)c3CCC(=O)O)c(CCC(=O)O)c2C)NC1=O", "endpoint-name": "pKd", "measurement": 10.01}
